# Test system: SR leukemia
# Test Description: NCI-60 one-dose screen, 48 h (100 = growth as untreated, 0 = no growth, -100 = all killed)
# Test Context: 10 µM
This is part of a sample that, as a whole, favours compounds with a hit. Of some 83,000 tested, about 20% had one in any assay. Calls of active or inactive are those of the source. The calls were made as follows: active = growth percent below 10; inactive = the rest.
A collection of compounds and their measured growth

[
  {
    "Compound": "CN1C(C(=O)Nc2ccccn2)=C(O)c2sc(Cl)cc2S1(=O)=O",
    "Target Desc": "SR leukemia",
    "growth": "96.1% (inactive)"
  },
  {
    "Compound": "O=C1c2ccccc2C(=O)c2c1ccc1c(=O)n(-c3ccccc3C(F)(F)F)nnc21",
    "Target Desc": "SR leukemia",
    "growth": "31.1% (inactive)"
  },
  {
    "Compound": "NS(=O)(=O)Oc1ccc(-c2ccc3sccc3c2)cc1",
    "Target Desc": "SR leukemia",
    "growth": "115% (inactive)"
  },
  {
    "Compound": "N#Cc1c(-c2ccc(Cl)cc2)cc(-c2cc(O)ccc2O)nc1N",
    "Target Desc": "SR leukemia",
    "growth": "21.7% (inactive)"
  },
  {
    "Compound": "O=C1C=C(Nc2cccc(Br)c2)c2ccccc2C1=O",
    "Target Desc": "SR leukemia",
    "growth": "56.8% (inactive)"
  },
  {
    "Compound": "CC(=O)OC1C=CC(OC(C)=O)O1 (centres undefined)",
    "Target Desc": "SR leukemia",
    "growth": "101% (inactive)"
  },
  {
    "Compound": "COc1ccc(-c2nn(-c3cccc(Cl)c3)cc2-c2cc(-c3ccccc3)nc(N)n2)cc1",
    "Target Desc": "SR leukemia",
    "growth": "11.3% (inactive)"
  },
  {
    "Compound": "c1ccc(CSc2ncccc2-c2nnc(SCCN3CCOCC3)o2)cc1",
    "Target Desc": "SR leukemia",
    "growth": "104% (inactive)"
  },
  {
    "Compound": "Cc1ccc(NCCN(C)CC(C)O)c2c(=O)c3ccc(Cl)cc3sc12 (centres undefined)",
    "Target Desc": "SR leukemia",
    "growth": "-28.9% (active)"
  },
  {
    "Compound": "O=[N+]([O-])c1ccc(/C(=C/c2ccccc2)[n+]2ccccc2)cc1",
    "Target Desc": "SR leukemia",
    "growth": "102% (inactive)"
  },
  {
    "Compound": "CCn1cc(CNc2ccc(C(=O)Nc3ccc4ccccc4c3)cc2)c(C)n1",
    "Target Desc": "SR leukemia",
    "growth": "46.2% (inactive)"
  },
  {
    "Compound": "CCOC(=O)c1cc(C(=O)c2cc(OC)c(OC)c(OC)c2)n2c1ccc1c3cccnc3ccc12",
    "Target Desc": "SR leukemia",
    "growth": "17.5% (inactive)"
  },
  {
    "Compound": "CC(C)c1cc(N=O)cc(C(C)C)c1O",
    "Target Desc": "SR leukemia",
    "growth": "106% (inactive)"
  },
  {
    "Compound": "O=C(CCn1cnc2c(cc(-c3ccccc3)n2-c2ccccc2)c1=O)Nc1ccc(F)cc1",
    "Target Desc": "SR leukemia",
    "growth": "72.3% (inactive)"
  },
  {
    "Compound": "COc1cc2cc(Oc3ccc(NC(=O)Nc4ccc(C(F)(F)F)cc4)cc3)c(C)nc2cc1OC",
    "Target Desc": "SR leukemia",
    "growth": "59.6% (inactive)"
  },
  {
    "Compound": "COc1cc(N)c2ncccc2c1SC",
    "Target Desc": "SR leukemia",
    "growth": "90.4% (inactive)"
  },
  {
    "Compound": "Cc1ccc(C(C)C)c(O)c1NC(=O)OC(C)C",
    "Target Desc": "SR leukemia",
    "growth": "115% (inactive)"
  },
  {
    "Compound": "O=c1cn[nH]c2ccc(Br)cc12",
    "Target Desc": "SR leukemia",
    "growth": "89.4% (inactive)"
  },
  {
    "Compound": "O=C1/C=C/[C@@H](O)[C@@H]2C[C@@H](O)C[C@H]2/C=C/CCC[C@H](CCc2ccc(NC(=S)Nc3ccc4c(c3)C(=O)OC43c4ccc(O)cc4Oc4cc(O)ccc43)cc2)O1",
    "Target Desc": "SR leukemia",
    "growth": "6.14% (active)"
  },
  {
    "Compound": "Cc1nn(-c2ccc(-c3ccc(OC(F)(F)F)cc3)cc2)c2nc(Cc3ccccc3)nc(N)c12",
    "Target Desc": "SR leukemia",
    "growth": "41.8% (inactive)"
  },
  {
    "Compound": "Cc1cc(C)nc(NS(=O)(=O)c2ccc(Nc3nc4nc(NCc5ccccc5)nc(-c5ccc(O)cc5)c4c(=O)[nH]3)cc2)n1",
    "Target Desc": "SR leukemia",
    "growth": "26.5% (inactive)"
  },
  {
    "Compound": "COc1cc2c(cc1OC)C(C(CCCCCC(CCC(C)C)C1NCCc3cc(OC)c(OC)cc31)CCC(C)C)NCC2 (centres undefined)",
    "Target Desc": "SR leukemia",
    "growth": "12.1% (inactive)"
  },
  {
    "Compound": "CCn1c(SC/C(=N/O)c2ccccc2)nnc1-c1ccccc1",
    "Target Desc": "SR leukemia",
    "growth": "94.8% (inactive)"
  },
  {
    "Compound": "Cc1c2c[n+](C(C)C)ccc2c(C)c2c1[nH]c1ccccc12",
    "Target Desc": "SR leukemia",
    "growth": "20.8% (inactive)"
  },
  {
    "Compound": "CCOc1ccccc1/C=N/N1CCCCCC1",
    "Target Desc": "SR leukemia",
    "growth": "89.3% (inactive)"
  },
  {
    "Compound": "COc1ccc(/C=C/c2nnc(/C=C/c3ccc(OC)c(OC)c3)o2)cc1OC",
    "Target Desc": "SR leukemia",
    "growth": "11.6% (inactive)"
  },
  {
    "Compound": "CCOC(=O)/C(=C(\\C)N)C1CC(=O)NC1=O (centres undefined)",
    "Target Desc": "SR leukemia",
    "growth": "102% (inactive)"
  },
  {
    "Compound": "O=S(=O)(NCCCNc1nccc(-c2cn(-c3ccccc3)nc2-c2ccc(Cl)c(O)c2)n1)c1ccccc1",
    "Target Desc": "SR leukemia",
    "growth": "42% (inactive)"
  },
  {
    "Compound": "C#C[C@]1(O)CCC2C3CCc4cc(OC5CCCC5)ccc4C3CC[C@@]21C (some centres undefined)",
    "Target Desc": "SR leukemia",
    "growth": "15.1% (inactive)"
  },
  {
    "Compound": "c1cnc2[nH]cc(-c3nc(-c4ccsc4)cs3)c2c1",
    "Target Desc": "SR leukemia",
    "growth": "87.7% (inactive)"
  },
  {
    "Compound": "Cc1ccc(C(=O)C2C(=O)C3CCC2C3)cc1 (centres undefined)",
    "Target Desc": "SR leukemia",
    "growth": "129% (inactive)"
  },
  {
    "Compound": "N#CC1=C(N)Oc2cc(N)ccc2C1c1cccnc1 (centres undefined)",
    "Target Desc": "SR leukemia",
    "growth": "70.6% (inactive)"
  },
  {
    "Compound": "COc1cc(C(=O)N2CCN(c3cc4c(cc3F)c(=O)c(C(=O)NO)cn4C3CC3)CC2)cc(OC)c1OC",
    "Target Desc": "SR leukemia",
    "growth": "95% (inactive)"
  },
  {
    "Compound": "C=C(C)[C@@H]1CC[C@]2(COCCC#N)CC[C@]3(C)[C@H](CC[C@@H]4[C@@]5(C)Cc6c([nH]c7ccccc67)C(C)(C)[C@@H]5CC[C@]43C)[C@@H]12",
    "Target Desc": "SR leukemia",
    "growth": "94.7% (inactive)"
  },
  {
    "Compound": "CN(C)CCN(Cc1ccccc1)c1ccc2ccccc2n1",
    "Target Desc": "SR leukemia",
    "growth": "98.6% (inactive)"
  },
  {
    "Compound": "CCc1ccc(-c2ccc(-n3nc(C)c4c(N)nc(Cc5ccccc5)nc43)cc2)cc1",
    "Target Desc": "SR leukemia",
    "growth": "21.2% (inactive)"
  },
  {
    "Compound": "Cc1ccc(NCCNCC(C)(C)O)c2c(=O)c3ccc(Cl)cc3sc12",
    "Target Desc": "SR leukemia",
    "growth": "-31.2% (active)"
  },
  {
    "Compound": "N#CCc1csc(Cc2ccccc2)n1",
    "Target Desc": "SR leukemia",
    "growth": "98.6% (inactive)"
  },
  {
    "Compound": "O=C1CC(=O)N(C(=O)c2nn(-c3ccc(Cl)cc3)cc2O)N1",
    "Target Desc": "SR leukemia",
    "growth": "-31.9% (active)"
  }
]
